B1: TRAF3IP2 (parent)
chain: FMEKRNQWLVSQLSAASPDTGHDS

- Variants of: B1
- Run Description: protein stability index of a GFP-peptide fusion (GPS, HEK-293T) (PSI 1-6); higher = more stable;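 note: lentivirally expressed fusions sorted by FACS into six bins by GFP to DsRed ratio, PSI derived from sequencing read proportions per bin multiplied by bin number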
- Stated Conditions: c terminus: a fixed tail appended
Collected protein stability index values appear next to each entry.
Just the number, please, no unit after it.

INSERT INTO measurements (variant_label, measured_quantity, observed_result) VALUES
  ('Q7A', 'protein stability index', 1.02),
  ('S14M', 'protein stability index', 2.34);

Consider W8Y . Its measured protein stability index is 4.21

Consider H22Q . Its measured protein stability index is 2.75

Consider R5V . Its measured protein stability index is 1.97

Consider V10Q . Its measured protein stability index is 2.93
